Assay: chemical genetic growth profiling, strain panel (AID 1159580);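 note: tested at 20 µM; growth read once vehicle control cultures reached saturation at 30 °C; 1 = growth at the plate median or of vehicle wells; lower values mean less growth of the strain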
Conditions: S. cerevisiae deletion strains, growth OD, locus YOR316C, strain cot1, active compounds read low
Screen size: about 5,500 compounds; about 2,000 (36%) were called active. Inconclusive results (about 18%) are left out. The list shows a part of the results.
Item-by-item account of normalized growth
readout: normalized growth

compound=CC(=O)Oc1c(C)cccc1C(=O)O measured=1.02
compound=O=c1cc[nH]c(=S)[nH]1 measured=0.998
compound=Cc1ccc(C)c(OCCCC(C)(C)C(=O)O)c1 measured=0.939
compound=O=C(O)c1cc2cc(Cc3cccnc3)ccc2o1 measured=0.992
compound="CC1(C)OC(=O)C=CC2(C)C1CC(O)C1(C)C2CCC2(C)C(c3ccoc3)OC(=O)C3OC321 (stereo unspecified)" measured=1.02
compound=CC(=O)N[C@@H](CS)C(=O)O measured=1.02
compound="C[C@@H]1C(=O)OC2[C@H](O)C34[C@@H]5OC(=O)[C@@]3(O[C@@H]3OC(=O)[C@H](O)[C@@]34[C@H](C(C)(C)C)[C@H]5O)[C@]21O (stereo partly specified)" measured=1.02
compound=Cc1cccc(C(=O)O)c1O measured=1.02
compound=Cc1cccc(C)c1NC1=NCCCS1 measured=0.99
compound=Cc1cccc(Nc2ccccc2C(=O)O)c1C measured=0.874
compound=CC[N+](CC)(CC)CCOc1cccc(OCC[N+](CC)(CC)CC)c1OCC[N+](CC)(CC)CC measured=1.02

----------
Experiment: chemical genetic growth profiling, strain panel (AID 1159580);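 note: tested at 20 µM; growth read once vehicle control cultures reached saturation at 30 °C; 1 = growth at the plate median or of vehicle wells; lower values mean less growth of the strain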
Settings: S. cerevisiae deletion strains, growth OD, locus YDL185W, strain tfp1, active compounds read low
The whole screen tested about 5,500 compounds, of which about 2,000 (36%) were called active. About 18% were inconclusive and are not listed. The list shows a part of the results.
Item-by-item account of normalized growth
readout: normalized growth

compound=Cc1cccc(C(=O)O)c1O measured=1.02
compound="CC(C)C(C)/C=C/C(C)[C@H]1CCC2C3=CCC4CC(=O)CC[C@]4(C)C3CC[C@@]21C (stereo partly specified)" measured=1.01
compound=COc1ccc2c(c1)CCC(c1ccccc1)=C2c1ccc(OCCN2CCCC2)cc1 measured=0.972
compound="CC(C)C(C)/C=C/C(C)C1CCC2C3=CC=C4CC(O)CCC4(C)C3CCC21C (stereo unspecified)" measured=1.01
compound=O=c1[nH]oc2c1CCNC2 measured=0.964
compound=CC(=O)Oc1c(C)cccc1C(=O)O measured=0.999

----------
Experiment: chemical genetic growth profiling, strain panel (AID 1159580);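 note: tested at 20 µM; growth read once vehicle control cultures reached saturation at 30 °C; 1 = growth at the plate median or of vehicle wells; lower values mean less growth of the strain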
Conditions: S. cerevisiae deletion strains, growth OD, locus YPR119W, strain clb2
In all, about 5,500 compounds went through this assay and about 2,000 (36%) were called active. Not shown: some 18% with an inconclusive outcome. Rule as the data show it: active = normalized growth mostly below about 0.91 (no sharp cut-off); inconclusive = no clear call, values can overlap the other calls; inactive = mostly above about 0.92. This is one part of the list.
Outcomes: t for active, f for inactive

compound="C=C1C(C)C2C(Cc3ccccc3)NC(=O)C23OC(=O)/C=C/C(=O)CCCC(C)C/C=C/C3C1O (stereo not given)" discrete_label=f
compound=CC(C)NC[C@H](O)COc1cccc2ccccc12 discrete_label=f
compound=Cc1ccc(C)c(OCCCC(C)(C)C(=O)O)c1 discrete_label=t
compound=O=C(O)c1cc2cc(Cc3cccnc3)ccc2o1 discrete_label=f
compound="CCC(C)c1cnc(CC(C)C)c(=O)n1O (stereo not given)" discrete_label=f
compound=Clc1cccc(Cl)c1NC1=NCCN1 discrete_label=f
compound=CC[N+](CC)(CC)CCOc1cccc(OCC[N+](CC)(CC)CC)c1OCC[N+](CC)(CC)CC discrete_label=f
compound="CC1OC1P(=O)(O)O (stereo not given)" discrete_label=f
compound="C=C1CCC2C(CC2(C)C)C(=O)CCC1O (stereo not given)" discrete_label=f
compound="COC(=O)[C@@H]1OC(=O)[C@H]2O[C@@]23[C@@]1(C)CCC1[C@@]2(C)CCC(=O)C(C)(C)C2C[C@@H](OC(C)=O)[C@]13C (stereo not given in full)" discrete_label=f
compound="CC1(C)C2(Cl)C(Cl)C(Cl)C(Cl)(C(Cl)Cl)C1(Cl)C2Cl (stereo not given)" discrete_label=f
compound="C=C1C(C)C2C(Cc3ccccc3)NC(=O)C23OC(=O)/C=C/C(O)CCCC(C)C/C=C/C3C1O (stereo not given)" discrete_label=f
compound=COc1cc(-c2coc3cc(OCc4ccccc4)c(OC)c(O)c3c2=O)cc(O)c1OC discrete_label=f
compound=Cc1cccc(C)c1NC1=NCCCS1 discrete_label=f
compound="C=C1CCC(=O)C(C)CCC2C1CC2(C)C (stereo not given)" discrete_label=f
